Measured values drawn from patent US20230114728A1 for this set.

Measured pEC50, listed per entry for reference.
TARGET OF ASSAY: E. coli K12 PBP3 (Escherichia coli)
Sequence (P0AD68 1-577): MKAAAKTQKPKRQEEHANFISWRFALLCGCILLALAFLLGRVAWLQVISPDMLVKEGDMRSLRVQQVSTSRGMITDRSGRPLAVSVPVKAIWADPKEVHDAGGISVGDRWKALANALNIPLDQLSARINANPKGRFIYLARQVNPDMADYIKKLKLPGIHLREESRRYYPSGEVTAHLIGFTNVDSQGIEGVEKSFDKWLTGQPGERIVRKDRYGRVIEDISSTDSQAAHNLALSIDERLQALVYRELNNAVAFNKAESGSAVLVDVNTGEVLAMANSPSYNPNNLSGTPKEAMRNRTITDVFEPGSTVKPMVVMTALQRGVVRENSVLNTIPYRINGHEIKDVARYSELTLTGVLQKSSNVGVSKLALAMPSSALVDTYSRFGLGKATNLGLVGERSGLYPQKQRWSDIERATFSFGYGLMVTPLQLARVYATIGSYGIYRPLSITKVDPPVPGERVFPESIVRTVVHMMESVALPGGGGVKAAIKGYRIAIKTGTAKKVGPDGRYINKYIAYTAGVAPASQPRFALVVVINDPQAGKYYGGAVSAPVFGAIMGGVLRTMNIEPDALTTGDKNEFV
ASSAY COMMENT: biochemical
pEC50: −log10 of the molar value.

COMPOUND: NCCN1CCN(C(=O)N[C@H](C(=O)N[C@H]2Cc3ccc(F)c(C(=O)O)c3OB2O)c2c(F)cc(O)cc2F)C(=O)C1=O (single isomer, unassigned)
pEC50: 3.30 to 4.52
--
COMPOUND: CCN1CCN(C(=O)N[C@H](C(=O)N[C@H]2Cc3cccc(C(=O)O)c3OB2O)c2cc(O)cc(O)c2)C(=O)C1=O (single isomer, unassigned)
pEC50: < 3.30
--
COMPOUND: NC1(CN2CCN(C(=O)NC(C(=O)N[C@H]3Cc4cccc(C(=O)O)c4OB3O)c3cccc(NS(N)(=O)=O)c3)C(=O)C2=O)CC1 (stereo partly drawn)
pEC50: 3.30 to 4.52
--
COMPOUND: NCCN1CCN(C(=O)N[C@@H](C(=O)N[C@H]2Cc3ccc(F)c(C(=O)O)c3OB2O)c2cc(F)c(O)c(O)c2Cl)C(=O)C1=O (single isomer, unassigned)
pEC50: > 4.52
--
COMPOUND: NS(=O)(=O)c1cccc(C(NC(=O)N2CCN(CCF)C(=O)C2=O)C(=O)N[C@H]2Cc3cccc(C(=O)O)c3OB2O)c1 (stereo partly drawn)
pEC50: 3.30 to 4.52
--
COMPOUND: NCCN1CCN(C(=O)N[C@@H](C(=O)N[C@H]2Cc3cccc(C(=O)O)c3OB2O)c2ccc(O)cc2F)C(=O)C1=O (single isomer, unassigned)
pEC50: 3.30 to 4.52
--
COMPOUND: N=C(N)NCCN1CCN(C(=O)NC(C(=O)N[C@H]2Cc3ccc(F)c(C(=O)O)c3OB2O)c2ccc(C(=O)O)c(F)c2)C(=O)C1=O (stereo partly drawn)
pEC50: 3.30 to 4.52
--
COMPOUND: C[C@H]1CN(CCNC(=O)c2ccc(O)c(O)c2Cl)C(=O)C(=O)N1C(=O)NC(C(=O)N[C@H]1Cc2cccc(C(=O)O)c2OB1O)c1ncc(O)cc1F (stereo partly drawn)
pEC50: > 4.52
--
COMPOUND: NCCCN1CCN(C(=O)N[C@@H](C(=O)N[C@H]2Cc3cccc(C(=O)O)c3OB2O)c2c(O)cc(O)cc2F)C(=O)C1=O (single isomer, unassigned)
pEC50: > 4.52
--
COMPOUND: NS(=O)(=O)Nc1cccc(C(NC(=O)N2CCN(CCF)C(=O)C2=O)C(=O)N[C@H]2Cc3cccc(C(=O)O)c3OB2O)c1 (stereo partly drawn)
pEC50: > 4.52
--
COMPOUND: CCN1CCN(C(=O)N[C@@H](C(=O)N[C@H]2Cc3cccc(C(=O)O)c3OB2O)c2ccc(C(=O)O)c(F)c2F)C(=O)C1=O (single isomer, unassigned)
pEC50: > 4.52
--
COMPOUND: O=C(NC(C(=O)N[C@H]1Cc2ccc(F)c(C(=O)O)c2OB1O)c1ncc(O)cc1F)c1ccnc(F)c1 (stereo partly drawn)
pEC50: 3.30 to 4.52

* * *

Measured MIC, listed per entry for reference.
Tested on: A. baumannii ATCC 19606
ASSAY COMMENT: Broth microdilution MIC in CAMHB
Type: cell-based
PARTICULARS: Acinetobacter baumannii, ATCC19606; MHB; read-out: Minimum Inhibitory Concentration, A. baumannii ATCC 19606
From the text: Example III: In Vitro Antibacterial Assays To determine the ability of test compounds to inhibit the growth of bacterial strains, classic cell based broth microdilution minimum inhibitory concentration (MIC) assays were employed. […] Briefly, cryo-preserved bacterial cultures of challenge strains are streaked for isolation on appropriate agar medium, in this case cation-adjusted Mueller Hinton agar. […] The MIC values are read visually as the lowest concentration well with no bacterial growth.

COMPOUND: CCN1CCN(C(=O)NC(C(=O)N[C@H]2Cc3cccc(C(=O)O)c3OB2O)c2c(F)cc(O)cc2Cl)C(=O)C1=O (stereo partly shown)
TARGET OF ASSAY: A. baumannii ATCC 19606
MIC: > 128 µg/mL
//
COMPOUND: NS(=O)(=O)c1cccc(C(NC(=O)N2CCN(CCF)C(=O)C2=O)C(=O)N[C@H]2Cc3cccc(C(=O)O)c3OB2O)c1 (stereo partly shown)
TARGET OF ASSAY: A. baumannii ATCC 19606
MIC: > 128 µg/mL
//
COMPOUND: O=C(O)c1cccc2c1OB(O)[C@@H](NC(=O)C(NC(=O)N1CCN(CCBr)C(=O)C1=O)c1ccc(O)c(F)c1F)C2 (stereo partly shown)
TARGET OF ASSAY: A. baumannii ATCC 19606
MIC: > 128 µg/mL
//
COMPOUND: CCN1CCN(C(=O)NC(C(=O)N[C@H]2Cc3cccc(C(=O)O)c3OB2O)c2cccc(NC(=O)c3cccnc3)c2)C(=O)C1=O (stereo partly shown)
TARGET OF ASSAY: A. baumannii ATCC 19606
MIC: > 128 µg/mL
//
COMPOUND: NCCN1CCN(C(=O)NC(C(=O)N[C@H]2Cc3cccc(C(=O)O)c3OB2O)c2cc(F)c(O)cc2F)C(=O)C1=O (stereo partly shown)
TARGET OF ASSAY: A. baumannii ATCC 19606
MIC: > 128 µg/mL
//
COMPOUND: NCCN1CCN(C(=O)NC(C(=O)N[C@H]2Cc3ccc(F)c(C(=O)O)c3OB2O)c2nc(N)sc2F)C(=O)C1=O (stereo partly shown)
TARGET OF ASSAY: A. baumannii ATCC 19606
MIC: > 128 µg/mL
//
COMPOUND: N=C(N)NCCN1CCN(C(=O)NC(C(=O)N[C@H]2Cc3ccc(F)c(C(=O)O)c3OB2O)c2ccc(C(=O)O)c(F)c2)C(=O)C1=O (stereo partly shown)
TARGET OF ASSAY: A. baumannii ATCC 19606
MIC: > 128 µg/mL
